Ref: patent US20230391876A1

Molecular target: T1, shFcRn (soluble human FcRn) (human, UniProt P55899 24-297; P61769 21-119)
T1 construct: extracellular domain; Printed only as 'soluble human FcRn'; also called hFcRn (immobilized on a chip)
T1 sequence (P55899 24-297 limits assumed, chain 1 of 2): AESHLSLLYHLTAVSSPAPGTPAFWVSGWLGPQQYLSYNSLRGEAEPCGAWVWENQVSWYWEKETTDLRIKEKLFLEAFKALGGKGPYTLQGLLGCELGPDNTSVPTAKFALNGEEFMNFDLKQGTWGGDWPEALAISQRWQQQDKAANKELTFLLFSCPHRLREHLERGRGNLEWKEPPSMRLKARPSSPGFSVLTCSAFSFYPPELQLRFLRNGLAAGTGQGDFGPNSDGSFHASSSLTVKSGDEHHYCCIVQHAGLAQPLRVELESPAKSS
T1 sequence (P61769 21-119 limits assumed, chain 2 of 2): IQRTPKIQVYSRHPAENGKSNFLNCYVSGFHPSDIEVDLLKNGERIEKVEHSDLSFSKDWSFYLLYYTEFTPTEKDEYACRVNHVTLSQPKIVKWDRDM
Test: SPR, shFcRn immobilized on chip, antibody as analyte, pH 7.4;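 further: kinetics fitted with a 1:1 Langmuir model, association 200 s and dissociation 600 s in PBST, double-referenced against buffer-only and interspot signals, values averaged over repeated runs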
measured parameter: Kd
Returns: string containing the numeric result and its unit.

Check out these entries, answers already filled in.
[[record]]
binder = "HL161AN variant No. 12 (LC:N25Q, HC:C32S) (antibody, V domains shown, also called HL161ANQ; #12 (HL161ANQ)) VL: SYVLTQPPSVSVAPGQTARITCGGQNIGSTSVHWYQQKPGQAPVLVVHDDSDRPSGIPERFSGSNSGNTATLTISRVEAGDEADYYCQVRDSSSDHVIFGGGTKLTVLGQPKAAPSVTL VH: EVQLLESGGGLVQPGGSLRLSCAASEFTFGSSVMTWVRQAPGKGLEWVSVISGSGGSTYYADSVKGRFTISRDNSKNTLYLQMNSLRAEDTAVYYCAKTPWWLRSPFFDYWGQGTLVTVSS"
reported_measurement = "0.209 nM"

[[record]]
binder = "HL161AN variant No. 10 (LC:N25S, HC:C32Y Q82T) (antibody, human IgG1, V domains shown, Variable domains only) VL: SYVLTQPPSVSVAPGQTARITCGGSNIGSTSVHWYQQKPGQAPVLVVHDDSDRPSGIPERFSGSNSGNTATLTISRVEAGDEADYYCQVRDSSSDHVIFGGGTKLTVLGQPKAAPSVTL VH: EVQLLESGGGLVQPGGSLRLSCAASEFTFGSYVMTWVRQAPGKGLEWVSVISGSGGSTYYADSVKGRFTISRDNSKNTLYLTMNSLRAEDTAVYYCAKTPWWLRSPFFDYWGQGTLVTVSS"
reported_measurement = "0.256 nM"


Kindly review the next binder as well.
Exercise: For HL161AN variant No. 15 (LC:N25Q, HC:Q82T) (antibody, human IgG1, V domains shown, Variable domains only) VL: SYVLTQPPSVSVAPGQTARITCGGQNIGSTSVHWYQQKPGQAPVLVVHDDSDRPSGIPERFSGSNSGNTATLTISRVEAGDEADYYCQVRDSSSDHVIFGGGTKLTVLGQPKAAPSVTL VH: EVQLLESGGGLVQPGGSLRLSCAASEFTFGSCVMTWVRQAPGKGLEWVSVISGSGGSTYYADSVKGRFTISRDNSKNTLYLTMNSLRAEDTAVYYCAKTPWWLRSPFFDYWGQGTLVTVSS , write its Kd.
Key: 0.279 nM
